Assay Remarks: Pharmacokinetic (PK) tests in rats
Format: in vivo
Condition Description: male, Crj:CD(SD), rat, plasma, oral; rats, 1 mg/kg per os, 8 hours after administration; read-out: Plasma concentration C8h
Quantity Name: log10(concentration at 8 h) (log10 of the value in nM)
Could you please treat all values as log10 of concentration at 8 h in nM?

State the recorded log10(concentration at 8 h) for this entry: Nc1ccc(-c2[nH]c([C@@H]3CCc4cc(-c5cc(Cl)ccc5-n5cnnn5)cc(=O)n43)nc2F)c(F)n1
2.94

Also N#Cc1cn(-c2ccc(Cl)cc2-c2cc3n(c(=O)c2)[C@H](c2nc(Cl)c(-c4ccc(N)nc4)[nH]2)CC3)nn1 , if possible.
2.54

Nc1ccc(-c2cnc([C@@H]3CCc4cc(-c5cc(Cl)ccc5-n5cnnn5)cc(=O)n43)[nH]2)c(F)n1 ?
2.23

Next:
Tell me the measured log10(concentration at 8 h) of Nc1ccc(-c2[nH]c([C@@H]3CCc4cc(-c5cc(Cl)ccc5-n5cnnn5)cc(=O)n43)nc2F)cn1 , please.
1.91

Query Nc1ccc(-c2nc(F)c([C@@H]3CCc4cc(-c5cc(Cl)ccc5-n5cnnn5)cc(=O)n43)[nH]2)c(F)n1 next
3.00

Likewise for Nc1ccc(-c2[nH]c([C@@H]3CCc4cc(-c5cc(Cl)ccc5-n5cnnn5)cc(=O)n43)nc2Cl)c(F)n1 ?
1.41

* * *

Assay Remarks: Pharmacokinetic (PK) tests in rats
Type: in vivo
Condition Description: rats, 1 mg/kg orally; period when plasma concentration exceeded APTT×2
Marks after values point to notes of the source that are not given here.
Recorded APTT × 2 maintaining time by entry

Some solved entries appear below for comparison.
What APTT × 2 maintaining time value was documented for this molecule, N#Cc1cn(-c2ccc(Cl)cc2-c2cc3n(c(=O)c2)[C@H](c2nc(Cl)c(-c4ccc(N)nc4)[nH]2)CC3)nn1 [Comparative Example 4] ?
0* h

Please give the result for Nc1ccc(-c2[nH]c([C@@H]3CCc4cc(-c5cc(Cl)ccc5-n5cnnn5)cc(=O)n43)nc2F)c(F)n1 [Example 1 (6)] too.
>8 h

How about this molecule: Nc1ccc(-c2nc(F)c([C@@H]3CCc4cc(-c5cc(Cl)ccc5-n5cnnn5)cc(=O)n43)[nH]2)c(F)n1 [Example 2 (10)]
>8 h

Same thing, different molecule: COC(=O)Nc1ccc(-c2nc(Cl)c([C@@H]3CCc4nc(-c5cc(Cl)ccc5-n5cnnn5)cc(=O)n43)[nH]2)cc1 [Comparative Example 3 (1)]
<2 h

What do you have for Nc1ccc(-c2nc(Cl)c([C@@H]3CCc4cc(-c5cc(Cl)ccc5-n5cnnn5)cc(=O)n43)[nH]2)c(F)n1 [Comparative Example 2 (3)] ?
<2 h

Let us examine a further case.
I have this molecule here, Nc1ccc(-c2cnc([C@@H]3CCc4cc(-c5cc(Cl)ccc5-n5cnnn5)cc(=O)n43)[nH]2)c(F)n1 [Comparative Example 1 (1)] , and I need its recorded APTT × 2 maintaining time.
0* h

* * *

Assay Remarks: Pharmacokinetic (PK) tests in rats
Type: in vivo
Condition Description: rats, 1 mg/kg orally; period when plasma concentration exceeded APTT×2
Marks after values point to notes of the source that are not given here.
Measured APTT × 2 maintaining time by item

Reported APTT × 2 maintaining time, compound Nc1ccc(-c2nc(F)c([C@@H]3CCc4nc(-c5cc(Cl)ccc5-n5cnnn5)cc(=O)n43)[nH]2)c(F)n1 [Example 3 (4)] : ____
>8 h

And what about the compound Nc1ccc(-c2ncc([C@@H]3CCc4cc(-c5cc(Cl)ccc5-n5cnnn5)cc(=O)n43)[nH]2)c(F)n1 [Comparative Example 2 (1)] ?
0* h

# iterate: Nc1ccc(-c2[nH]c([C@@H]3CCc4cc(-c5cc(Cl)ccc5-n5cnnn5)cc(=O)n43)nc2F)cn1 [Comparative Example 1 (3)]
<1 h

Would you kindly repeat that for N#Cc1cn(-c2ccc(Cl)cc2-c2cc3n(c(=O)c2)[C@H](c2nc(F)c(-c4ccc(N)cc4)[nH]2)CC3)nn1 [Example 4 (10)] ?
>8 h

Can you check Nc1ccc(-c2[nH]c([C@@H]3CCc4nc(-c5cc(Cl)ccc5-n5cnnn5)cc(=O)n43)nc2Cl)c(F)n1 [Comparative Example 3 (2)] next?
0* h

Next up: Nc1ccc(-c2nc(F)c([C@@H]3CCc4cc(-c5cc(Cl)ccc5-n5cnnn5)cc(=O)n43)[nH]2)cn1 [Comparative Example 2 (5)]
<2 h

---
Reported APTT × 2 maintaining time, compound Nc1ccc(-c2[nH]c([C@@H]3CCc4cc(-c5cc(Cl)ccc5-n5cnnn5)cc(=O)n43)nc2Cl)c(F)n1 [Comparative Example 1 (2)] : ____
0* h

Cited source: patent US10815233B2
